System: SK-MEL-28 melanoma
Assay: NCI-60 one-dose screen, 48 h (100 = growth as untreated, 0 = no growth, -100 = all killed)
Conditions: 10 µM unless noted
Description: Growth inhibition of the SK-MEL-28 human tumor cell line is measured as a screen for anti-cancer activity. Cells are grown in 96 well plates and exposed to the test compound for 48 hours. Compounds are tested at a single concentration, which is 10^-5 M for most compounds. The reported endpoint is percent growth (GI% or GIPRCNT), where numbers from 0 - 100% represent growth inhibition, and numbers from -100% - 0 represent cell death. For example, a value of 40 represents 60% growth inhibition. […]
Compounds without any hit were thinned out: in the full panel of roughly 83,000, 20% have a hit.
Give Condition met when the value for growth is at least 60%. Give Condition not met when it is less.

# compound, experimentalSystem, className
records = [
    ("O=c1c(Cc2ccc(F)cc2)cc(-c2ccccc2)nn1C/C(=N/O)c1ccccc1", "SK-MEL-28 melanoma", "Condition met"),
    ("CNc1nc2ncc(-c3c(C)noc3C)cc2n1Cc1ccccc1", "SK-MEL-28 melanoma", "Condition not met"),
]

Below: the item to evaluate.
Check the entry CCN1C(=O)N(CC)C2C1NN=c1s/c(=C3\C(=O)N(C)c4ccccc43)c(=O)n12 (configuration not stated) : does growth equal or exceed 60%?
Condition not met
